subject.of.test: BaF3_HER2YVMA cells (Homo sapiens, UniProt P04626, DUP772-775, cells depend on it)
Sequence (P04626 with tags, fused parts or gaps DUP772-775): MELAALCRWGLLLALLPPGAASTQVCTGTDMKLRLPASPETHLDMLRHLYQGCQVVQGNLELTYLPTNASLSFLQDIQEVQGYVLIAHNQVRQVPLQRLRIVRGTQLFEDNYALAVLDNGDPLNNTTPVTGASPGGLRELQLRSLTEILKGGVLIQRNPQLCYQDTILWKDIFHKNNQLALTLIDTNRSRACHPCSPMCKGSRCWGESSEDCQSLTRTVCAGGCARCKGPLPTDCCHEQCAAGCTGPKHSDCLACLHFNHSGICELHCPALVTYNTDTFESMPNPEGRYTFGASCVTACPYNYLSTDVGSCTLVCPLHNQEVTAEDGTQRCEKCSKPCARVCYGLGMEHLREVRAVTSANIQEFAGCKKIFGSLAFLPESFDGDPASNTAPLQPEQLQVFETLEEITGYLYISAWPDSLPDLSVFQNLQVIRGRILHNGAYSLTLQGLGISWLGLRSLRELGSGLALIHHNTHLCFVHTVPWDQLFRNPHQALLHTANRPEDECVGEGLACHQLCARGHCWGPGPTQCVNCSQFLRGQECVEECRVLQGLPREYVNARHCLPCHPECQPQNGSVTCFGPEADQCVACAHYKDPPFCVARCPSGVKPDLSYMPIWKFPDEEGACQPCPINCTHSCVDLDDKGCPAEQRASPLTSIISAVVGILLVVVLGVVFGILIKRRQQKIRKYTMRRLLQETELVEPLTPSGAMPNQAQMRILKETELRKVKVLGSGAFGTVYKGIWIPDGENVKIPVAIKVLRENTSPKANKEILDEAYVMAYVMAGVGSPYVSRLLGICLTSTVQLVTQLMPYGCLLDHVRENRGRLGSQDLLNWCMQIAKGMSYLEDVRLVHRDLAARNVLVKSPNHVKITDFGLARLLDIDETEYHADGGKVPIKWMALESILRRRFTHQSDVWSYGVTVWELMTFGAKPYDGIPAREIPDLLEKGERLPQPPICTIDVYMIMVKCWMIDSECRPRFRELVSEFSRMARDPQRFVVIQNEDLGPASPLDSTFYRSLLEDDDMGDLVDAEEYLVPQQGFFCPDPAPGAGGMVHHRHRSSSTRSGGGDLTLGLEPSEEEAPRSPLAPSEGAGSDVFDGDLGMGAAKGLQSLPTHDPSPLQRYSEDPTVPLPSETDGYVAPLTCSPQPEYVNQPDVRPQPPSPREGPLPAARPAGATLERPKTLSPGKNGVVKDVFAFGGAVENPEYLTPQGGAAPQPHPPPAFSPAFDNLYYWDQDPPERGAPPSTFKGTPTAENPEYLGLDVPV
assay: Cell growth inhibition assay (CellTiterGlo), BaF3_HER2YVMA
Assay type: cell-based
test.settings: 3-day treatment, CellTiterGlo, read-out: Cell growth inhibition activity, HER2 - YVMA
observed.property: GI50

(Q) Hello, please tell me recorded GI50 for this one: C=CC(=O)N1CCC(c2ccn3ncnc(Nc4ccc(Oc5ccn6ncnc6c5)c(C)c4)c23)C1 (stereo not shown) [Example 11]
(A) < 200 nM

(Q) Supply recorded GI50 for CO[C@@H]1CN(C/C=C/C(=O)N2CCC(c3ccn4ncnc(Nc5ccc(Oc6ccn7ncnc7c6)c(C)c5)c34)CC2)C[C@H]1OC [Example 170] here.
(A) < 200 nM

(Q) Give the measured GI50 for C=CC(=O)N(C)C1CCCN(c2ccn3ncnc(Nc4ccc(Oc5ccn6ncnc6c5)c(C)c4)c23)C1 (stereo not shown) [Example 69]
(A) 200 to 500 nM

(Q) Quick one: give measured GI50 for C=CC(=O)N1CCCC(c2ccn3ncnc(Nc4ccc(Oc5ccn6ncnc6c5)c(C)c4)c23)CC1 (stereo not shown) [Example 9]
(A) < 200 nM
